Test system: Rattus norvegicus
Experiment: Dose normalized AUC in po dosed Sprague-Dawley rat by LC/MS/MS analysis
Assay type: ADME, organism-based
Conditions: in vivo
Observable: AUC/dose (kg·h/L)
Numbers only; they are read as kg·h/L.

[Q] API: value(readout= AUC/dose, system= Rattus norvegicus, query= CNS(=O)(=O)c1ccc(N(C)C)c(Nc2ncnc3[nH]cc(Br)c23)c1 )
[A] 0.04

[Q] API: value(readout= AUC/dose, system= Rattus norvegicus, query= CNS(=O)(=O)c1cccc(Nc2ncnc3[nH]c(-c4ccccc4)cc23)c1 )
[A] 0.01

[Q] API: value(readout= AUC/dose, system= Rattus norvegicus, query= CNS(=O)(=O)c1ccc(N2CCOCC2)c(Nc2ncnc3[nH]c(Br)cc23)c1 )
[A] 0.09

[Q] API: value(readout= AUC/dose, system= Rattus norvegicus, query= CNS(=O)(=O)c1cccc(Nc2ncnc3[nH]cc(-c4ccc(Cl)cc4)c23)c1 )
[A] 0.2

[Q] API: value(readout= AUC/dose, system= Rattus norvegicus, query= CNS(=O)(=O)c1cccc(Nc2ncnc3[nH]c(-c4cccc(C)c4)cc23)c1 )
[A] 0.01

* * *

Biological target: Serine/threonine-protein kinase TNNI3K (Homo sapiens)
Sequence (Q59H18 whole entry): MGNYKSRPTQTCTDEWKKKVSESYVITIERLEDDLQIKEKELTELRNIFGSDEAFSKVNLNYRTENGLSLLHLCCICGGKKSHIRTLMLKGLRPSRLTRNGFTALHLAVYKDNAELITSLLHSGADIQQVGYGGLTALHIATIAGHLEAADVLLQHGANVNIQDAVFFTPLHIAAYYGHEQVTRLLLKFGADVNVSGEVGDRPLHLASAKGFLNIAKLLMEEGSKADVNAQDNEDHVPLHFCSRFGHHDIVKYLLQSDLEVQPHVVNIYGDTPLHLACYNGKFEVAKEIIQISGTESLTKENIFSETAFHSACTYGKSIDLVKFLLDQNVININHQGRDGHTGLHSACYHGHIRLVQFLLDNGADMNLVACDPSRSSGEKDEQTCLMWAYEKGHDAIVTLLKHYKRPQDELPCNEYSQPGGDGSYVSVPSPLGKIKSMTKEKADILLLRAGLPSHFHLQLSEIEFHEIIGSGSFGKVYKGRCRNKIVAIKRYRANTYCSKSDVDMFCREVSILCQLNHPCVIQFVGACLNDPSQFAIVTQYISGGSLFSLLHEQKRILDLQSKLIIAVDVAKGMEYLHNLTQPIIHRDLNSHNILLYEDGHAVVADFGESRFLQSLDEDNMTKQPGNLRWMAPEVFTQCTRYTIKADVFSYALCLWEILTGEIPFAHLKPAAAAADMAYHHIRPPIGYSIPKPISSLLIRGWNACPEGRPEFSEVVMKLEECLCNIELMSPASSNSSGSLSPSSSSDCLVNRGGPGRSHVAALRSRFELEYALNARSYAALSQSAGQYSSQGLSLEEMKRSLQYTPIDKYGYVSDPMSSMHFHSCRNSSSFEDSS
Assay: Displacement of 5-({[2-({[3-({4-[(5-hydroxy-2-methylphenyl)amino]-2-pyrimidinyl}amino)phenyl]carbonyl}amino)-ethyl]amino}carbonyl)-2-(6-hydroxy-3-oxo-3H-xanthen-9-yl)benzoic acid from His6-MBP-TEV-full length human TNNI3K expressed in Baculovirus expression system after 60 mins by fluorescence polarization assay
// reported pIC50 per item
pIC50 (log units): -log10 of the concentration in mol/L.

Consider the worked cases shown below.
{"Test smiles": "CNS(=O)(=O)c1cccc(Nc2ncnc3[nH]cc(-c4cccc(Cl)c4)c23)c1", "pIC50": 7.20}
{"Test smiles": "CNS(=O)(=O)c1ccc(N2CCOCC2)c(Nc2ncnc3[nH]c(-c4cccc(C(F)(F)F)c4)cc23)c1", "pIC50": 7.80}
{"Test smiles": "CNc1ccc(S(=O)(=O)NC)cc1Nc1ncnc2[nH]ccc12", "pIC50": 5.20}

Now take the following molecule into account.
[Q] Please give the measured pIC50 for this molecule: CN(C)S(=O)(=O)c1cccc(Nc2ncnc3[nH]cnc23)c1
[A] 5.10

* * *

// reported log10 of IC50 per item
Target: Serine/threonine-protein kinase B-raf (Homo sapiens, UniProt P15056, V600E)
Sequence (P15056 2-766 V600E limits assumed): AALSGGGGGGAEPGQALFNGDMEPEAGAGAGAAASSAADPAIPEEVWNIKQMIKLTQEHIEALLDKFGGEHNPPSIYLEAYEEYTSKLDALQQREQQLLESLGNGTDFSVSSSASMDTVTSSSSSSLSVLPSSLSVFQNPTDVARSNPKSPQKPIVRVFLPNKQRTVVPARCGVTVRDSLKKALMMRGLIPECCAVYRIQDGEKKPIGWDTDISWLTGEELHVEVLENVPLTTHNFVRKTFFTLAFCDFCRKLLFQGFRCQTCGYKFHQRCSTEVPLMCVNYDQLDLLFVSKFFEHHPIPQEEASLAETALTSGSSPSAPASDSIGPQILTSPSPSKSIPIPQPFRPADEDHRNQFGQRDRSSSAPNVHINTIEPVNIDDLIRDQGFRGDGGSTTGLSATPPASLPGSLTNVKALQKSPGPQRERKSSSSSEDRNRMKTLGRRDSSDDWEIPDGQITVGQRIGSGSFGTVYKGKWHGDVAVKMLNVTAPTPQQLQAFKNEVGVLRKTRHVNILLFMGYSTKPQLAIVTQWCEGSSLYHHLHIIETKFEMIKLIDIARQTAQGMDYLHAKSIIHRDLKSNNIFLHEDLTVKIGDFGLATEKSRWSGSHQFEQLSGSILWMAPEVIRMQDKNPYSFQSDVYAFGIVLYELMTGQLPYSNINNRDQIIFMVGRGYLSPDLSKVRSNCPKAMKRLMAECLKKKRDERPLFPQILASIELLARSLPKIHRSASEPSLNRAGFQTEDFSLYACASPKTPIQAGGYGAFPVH
Assay: Inhibition of His6-tagged full length BRAF V600E mutant (2 to 766 residues) (unknown origin) expressed in Baculovirus expression system by BRAMA method
In our notation, the value equals log10 of IC50 in nM.

{"Test smiles": "CNS(=O)(=O)c1cccc(Nc2ncnc3[nH]cc(-c4ccccc4)c23)c1", "log10 of IC50": 0.60}
{"Test smiles": "CNS(=O)(=O)c1cccc(Nc2ncnc3[nH]cc(Br)c23)c1", "log10 of IC50": 0.70}

[Q] Please give the measured log10 of IC50 for this compound: CNS(=O)(=O)c1cccc(Nc2ncnc3[nH]cc(-c4ccccc4Cl)c23)c1
[A] 1.00

* * *

Target: Serine/threonine-protein kinase B-raf (Homo sapiens, UniProt P15056, V600E)
Experiment: Inhibition of His6-tagged full length BRAF V600E mutant (2 to 766 residues) (unknown origin) expressed in Baculovirus expression system by BRAMA method
pIC50: −log10 of the molar value.
Label rule, in plain words: pIC50 of 8 and up is Condition met, under 8 is Condition not met.

Previously resolved entries follow.
{"Test smiles": "CNS(=O)(=O)c1cccc(Nc2ncnc3[nH]c(-c4ccncc4)cc23)c1", "Cat": "Condition met"}
{"Test smiles": "CNS(=O)(=O)c1cccc(Nc2ncnc3[nH]c(-c4ccccc4)cc23)c1", "Cat": "Condition met"}
{"Test smiles": "CNc1ccc(S(=O)(=O)NC)cc1Nc1ncnc2[nH]ccc12", "Cat": "Condition not met"}
{"Test smiles": "CNS(=O)(=O)c1ccc(N(C)C)c(Nc2ncnc3[nH]c(-c4cccc(C(F)(F)F)c4)cc23)c1", "Cat": "Condition met"}
{"Test smiles": "CNS(=O)(=O)c1ccc(N2CCOCC2)c(Nc2ncnc3[nH]cc(C)c23)c1", "Cat": "Condition met"}

[Q] Does the molecule CNS(=O)(=O)c1cccc(Nc2ncnc3[nH]cc(C)c23)c1 have recorded pIC50 that is 8 or more?
[A] Condition not met
